This section presents binders with their documented pKd values.
Molecular target: T1, monomeric recombinant human Notch3 extracellular domain (containing EGF like domains 1-11) fusion protein (human, UniProt Q9UM47 40-467)
T1 construct: domain: EGF like domains 1-11; also called monomeric rhNotch3
T1 sequence (looked up): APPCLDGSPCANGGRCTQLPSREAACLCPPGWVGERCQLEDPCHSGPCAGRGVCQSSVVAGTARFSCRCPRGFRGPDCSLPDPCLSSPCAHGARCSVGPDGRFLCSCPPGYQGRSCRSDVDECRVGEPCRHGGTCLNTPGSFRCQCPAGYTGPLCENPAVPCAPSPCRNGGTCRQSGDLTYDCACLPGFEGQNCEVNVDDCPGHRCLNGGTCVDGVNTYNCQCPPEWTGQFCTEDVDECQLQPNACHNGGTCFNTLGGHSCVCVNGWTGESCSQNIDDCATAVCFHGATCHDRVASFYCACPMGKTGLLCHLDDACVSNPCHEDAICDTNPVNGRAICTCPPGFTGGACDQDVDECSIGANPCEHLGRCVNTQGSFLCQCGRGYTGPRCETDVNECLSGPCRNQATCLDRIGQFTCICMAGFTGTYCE
Experiment: SPR BIAcore T100, monomeric rhNotch3 analyte, 37 C, average of Table 16 and additional measurements
Formally, pKd is defined as -log10 of the concentration c, with c in mol/L.

Some entries whose results are on file:
Input: Report pKd for Hu4F11-78 (antibody, human IgG1, kappa, V domains shown, Humanized, human IgG1 kappa; Hv3-23 A28T S31H T62S heavy + Kv2D-29 N28Q kappa) VH: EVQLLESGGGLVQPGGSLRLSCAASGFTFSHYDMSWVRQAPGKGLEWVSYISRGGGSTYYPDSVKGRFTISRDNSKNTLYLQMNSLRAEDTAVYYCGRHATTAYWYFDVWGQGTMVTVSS VL: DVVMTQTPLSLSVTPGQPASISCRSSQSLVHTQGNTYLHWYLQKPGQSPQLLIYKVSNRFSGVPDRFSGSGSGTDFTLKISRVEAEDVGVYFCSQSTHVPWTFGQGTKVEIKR please.
Output: 8.05

Input: Report pKd for Hu4F11-32 (antibody, human IgG1, kappa, V domains shown, Humanized, human IgG1 kappa; Sh4F11 Hv3-23 heavy + Hu4F11 Kv2D-29 kappa) VH: EVQLLESGGGLVQPGGSLRLSCAASGFAFSSYDMSWVRQAPGKGLEWVSYISRGGGSTYYPDTVKGRFTISRDNSKNTLYLQMNSLRAEDTAVYYCGRHATTAYWYFDVWGQGTMVTVSS VL: DVVMTQTPLSLSVTPGQPASISCRSSQSLVHTNGNTYLHWYLQKPGQSPQLLIYKVSNRFSGVPDRFSGSGSGTDFTLKISRVEAEDVGVYFCSQSTHVPWTFGQGTKVEIKR please.
Output: 8.12

Input: Report pKd for Hu4F11-79 (antibody, human IgG1, kappa, V domains shown, Humanized, human IgG1 kappa; Hv3-23 A28T T62S heavy + Kv2D-29 N28Q kappa) VH: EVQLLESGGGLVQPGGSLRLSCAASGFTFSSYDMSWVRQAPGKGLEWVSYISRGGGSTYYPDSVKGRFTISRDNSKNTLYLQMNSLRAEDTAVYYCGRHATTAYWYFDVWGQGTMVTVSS VL: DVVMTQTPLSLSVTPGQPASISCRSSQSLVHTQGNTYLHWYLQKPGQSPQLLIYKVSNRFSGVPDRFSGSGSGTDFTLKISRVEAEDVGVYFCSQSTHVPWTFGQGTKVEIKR please.
Output: 7.80

// next entry
Input: Report pKd for Hu4F11-71 (antibody, human IgG1, kappa, V domains shown, Humanized, human IgG1 kappa; Hv3-23 A28T T62S heavy + Kv2D-29 N28H kappa) VH: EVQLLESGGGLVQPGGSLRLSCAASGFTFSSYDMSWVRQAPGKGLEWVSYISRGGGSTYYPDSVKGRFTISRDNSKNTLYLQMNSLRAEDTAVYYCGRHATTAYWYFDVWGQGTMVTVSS VL: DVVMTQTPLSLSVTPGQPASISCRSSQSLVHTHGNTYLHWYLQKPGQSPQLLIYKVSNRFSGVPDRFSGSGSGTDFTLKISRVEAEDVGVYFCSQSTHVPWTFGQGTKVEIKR please.
Output: 8.04
